# credit: ChEMBL document CHEMBL3351293

Below, each entry is listed with its recorded pEC50.
- experimental_target: UniProt:P21554
- method_description: Inverse agonist activity at human CB1 receptor expressed in Sf9 cells coexpressing Gbeta1gamma2 and RSG4 assessed as degradation of [gamma-33P]GTP after 20 mins by steady-state GTPase assay
Reminder that pEC50 means the negative base-10 logarithm of the concentration expressed in mol/L.

Guide cases for pEC50, answers given:
smiles_repr	experimental_result
Cc1c(C(=O)NCCCCNCc2ccc(CNCCCCNC(=O)c3nn(-c4ccc(Cl)cc4Cl)c(-c4ccc(Cl)cc4)c3C)cc2)nn(-c2ccc(Cl)cc2Cl)c1-c1ccc(Cl)cc1	5.53
Cc1c(C(=O)NCCCCNCc2cccc(C(=O)NCCCCNC(=O)c3nn(-c4ccc(Cl)cc4Cl)c(-c4ccc(Cl)cc4)c3C)c2)nn(-c2ccc(Cl)cc2Cl)c1-c1ccc(Cl)cc1	5.79
Cc1c(C(=O)NCCCCCCCNCCCCCCCNC(=O)c2nn(-c3ccc(Cl)cc3Cl)c(-c3ccc(Cl)cc3)c2C)nn(-c2ccc(Cl)cc2Cl)c1-c1ccc(Cl)cc1	6.06
Cc1c(C(=O)NCCCCNC(=O)[C@H]2CC[C@@H](C(=O)NCCCCNC(=O)c3nn(-c4ccc(Cl)cc4Cl)c(-c4ccc(Cl)cc4)c3C)CC2)nn(-c2ccc(Cl)cc2Cl)c1-c1ccc(Cl)cc1	5.02

Here's the next entry for you.
Exam item: Report pEC50 for Cc1c(C(=O)NCCCCCCCCNC(=O)C23CC4CC(C2)CC(C(=O)NCCCCCCCCNC(=O)c2nn(-c5ccc(Cl)cc5Cl)c(-c5ccc(Cl)cc5)c2C)(C4)C3)nn(-c2ccc(Cl)cc2Cl)c1-c1ccc(Cl)cc1 please.
Marked response: 5.14

###

- experimental_target: Cannabinoid receptor 1 (Homo sapiens, UniProt P21554)
- Sequence (P21554 whole entry): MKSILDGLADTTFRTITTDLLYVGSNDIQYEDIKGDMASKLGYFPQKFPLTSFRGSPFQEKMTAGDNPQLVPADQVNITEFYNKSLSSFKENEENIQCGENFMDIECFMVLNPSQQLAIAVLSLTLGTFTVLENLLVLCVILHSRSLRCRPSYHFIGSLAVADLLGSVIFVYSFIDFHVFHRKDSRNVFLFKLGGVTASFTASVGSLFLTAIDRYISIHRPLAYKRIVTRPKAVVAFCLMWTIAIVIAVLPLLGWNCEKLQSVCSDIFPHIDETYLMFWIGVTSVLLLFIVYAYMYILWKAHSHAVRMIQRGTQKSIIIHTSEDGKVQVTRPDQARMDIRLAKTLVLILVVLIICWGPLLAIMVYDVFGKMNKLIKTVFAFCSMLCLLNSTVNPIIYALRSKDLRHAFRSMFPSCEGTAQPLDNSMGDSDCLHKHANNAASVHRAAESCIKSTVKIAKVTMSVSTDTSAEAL
- conditions_used: Sf9, at 30 µM
- Description: Inverse agonist activity at human CB1 receptor expressed in Sf9 cells coexpressing Gbeta1gamma2 and RSG4 assessed as degradation of [gamma-33P]GTP at 30 uM after 20 mins by steady-state GTPase assay relative to control
measured_property: Emax (%)
Report the value in % with no unit label.

Exam item: Report Emax for Cc1c(C(=O)NCCCCCCCCN)nn(-c2ccc(Cl)cc2Cl)c1-c1ccc(Cl)cc1 please.
Marked response: 92.8

Exam item: Report Emax for Cc1c(C(=O)NCCCCNC(=O)C2CCCCC2)nn(-c2ccc(Cl)cc2Cl)c1-c1ccc(Cl)cc1 please.
Marked response: 91.5

Exam item: Report Emax for Cc1c(C(=O)NN2CCCCC2)nn(-c2ccc(Cl)cc2Cl)c1-c1ccc(I)cc1 please.
Marked response: 100

Exam item: Report Emax for Cc1c(C(=O)NCCCCCCCCNC(=O)c2ccc(C(=O)NCCCCCCCCNC(=O)c3nn(-c4ccc(Cl)cc4Cl)c(-c4ccc(Cl)cc4)c3C)cc2)nn(-c2ccc(Cl)cc2Cl)c1-c1ccc(Cl)cc1 please.
Marked response: 29.3

Exam item: Report Emax for Cc1c(C(=O)NCCCCCCCCNC(=O)C2CCCCC2)nn(-c2ccc(Cl)cc2Cl)c1-c1ccc(Cl)cc1 please.
Marked response: 78.8

###

Below, each entry is listed with its recorded Emax.
- experimental_target: Cannabinoid receptor 1 (Homo sapiens, UniProt P21554)
- conditions_used: Sf9, at 30 µM
Report the value in % with no unit label.

compound	value_units	Emax
Cc1c(C(=O)NCCCCCCNC(=O)c2cccc(C(=O)NCCNC(=O)c3nn(-c4ccc(Cl)cc4Cl)c(-c4ccc(Cl)cc4)c3C)c2)nn(-c2ccc(Cl)cc2Cl)c1-c1ccc(Cl)cc1	%	43.6

Exam item: Report Emax for Cc1c(C(=O)NCCCCCCCNCCCCCCCNC(=O)c2nn(-c3ccc(Cl)cc3Cl)c(-c3ccc(Cl)cc3)c2C)nn(-c2ccc(Cl)cc2Cl)c1-c1ccc(Cl)cc1 please.
Marked response: 89.2

Exam item: Report Emax for Cc1c(C(=O)NCCCCNCc2ccc(C(=O)NCCCCNC(=O)c3nn(-c4ccc(Cl)cc4Cl)c(-c4ccc(Cl)cc4)c3C)cc2)nn(-c2ccc(Cl)cc2Cl)c1-c1ccc(Cl)cc1 please.
Marked response: 67.4

Exam item: Report Emax for Cc1c(C(=O)NCCCCCCCCNC(=O)[C@H]2CC[C@@H](C(=O)NCCCCCCCCNC(=O)c3nn(-c4ccc(Cl)cc4Cl)c(-c4ccc(Cl)cc4)c3C)CC2)nn(-c2ccc(Cl)cc2Cl)c1-c1ccc(Cl)cc1 please.
Marked response: 62.4

Exam item: Report Emax for Cc1c(C(=O)NCCCCNC(=O)C23CC4CC(C2)CC(C(=O)NCCCCNC(=O)c2nn(-c5ccc(Cl)cc5Cl)c(-c5ccc(Cl)cc5)c2C)(C4)C3)nn(-c2ccc(Cl)cc2Cl)c1-c1ccc(Cl)cc1 please.
Marked response: 66.4

Exam item: Report Emax for Cc1c(C(=O)NCCCCCCCCNC(=O)C23CC4CC(C2)CC(C(=O)NCCCCCCCCNC(=O)c2nn(-c5ccc(Cl)cc5Cl)c(-c5ccc(Cl)cc5)c2C)(C4)C3)nn(-c2ccc(Cl)cc2Cl)c1-c1ccc(Cl)cc1 please.
Marked response: 34.7

Exam item: Report Emax for Cc1c(C(=O)NCCCCCCCCNC(=O)c2cccc(C(=O)NCCCCCCCCNC(=O)c3nn(-c4ccc(Cl)cc4Cl)c(-c4ccc(Cl)cc4)c3C)c2)nn(-c2ccc(Cl)cc2Cl)c1-c1ccc(Cl)cc1 please.
Marked response: 59.1

Exam item: Report Emax for Cc1c(C(=O)NCCCCCCCCNCc2ccccc2)nn(-c2ccc(Cl)cc2Cl)c1-c1ccc(Cl)cc1 please.
Marked response: 93.8

Exam item: Report Emax for Cc1c(C(=O)NCCCCNCc2ccc(CNCCCCNC(=O)c3nn(-c4ccc(Cl)cc4Cl)c(-c4ccc(Cl)cc4)c3C)cc2)nn(-c2ccc(Cl)cc2Cl)c1-c1ccc(Cl)cc1 please.
Marked response: 93.2

Exam item: Report Emax for Cc1c(C(=O)NCCCCNC(=O)[C@@H]2CCC[C@H](C(=O)NCCCCNC(=O)c3nn(-c4ccc(Cl)cc4Cl)c(-c4ccc(Cl)cc4)c3C)C2)nn(-c2ccc(Cl)cc2Cl)c1-c1ccc(Cl)cc1 please.
Marked response: 38.2

Exam item: Report Emax for Cc1c(C(=O)NCCCCNCc2ccccc2)nn(-c2ccc(Cl)cc2Cl)c1-c1ccc(Cl)cc1 please.
Marked response: 92.5

Exam item: Report Emax for Cc1c(C(=O)NCCCCNC(=O)c2ccc(C(=O)NCCCCNC(=O)c3nn(-c4ccc(Cl)cc4Cl)c(-c4ccc(Cl)cc4)c3C)cc2)nn(-c2ccc(Cl)cc2Cl)c1-c1ccc(Cl)cc1 please.
Marked response: 50.2

###

- experimental_target: Cannabinoid receptor 1 (Homo sapiens)
- conditions_used: Sf9, at 30 µM
measured_property: Emax (%)
Report the value in % with no unit label.

Guide cases for Emax, answers given:
molecule	experimental_target	value_units	Emax
Cc1c(C(=O)NCCCCCCCCNC(=O)c2ccccc2)nn(-c2ccc(Cl)cc2Cl)c1-c1ccc(Cl)cc1	Cannabinoid receptor 1 (Homo sapiens)	%	80.2
Cc1c(C(=O)NCCCCN)nn(-c2ccc(Cl)cc2Cl)c1-c1ccc(Cl)cc1	Cannabinoid receptor 1 (Homo sapiens)	%	86.9
Cc1c(C(=O)NCCCCNC(=O)[C@H]2CCCC[C@@H]2C(=O)NCCCCNC(=O)c2nn(-c3ccc(Cl)cc3Cl)c(-c3ccc(Cl)cc3)c2C)nn(-c2ccc(Cl)cc2Cl)c1-c1ccc(Cl)cc1 (relative stereo)	Cannabinoid receptor 1 (Homo sapiens)	%	58.4
Cc1c(C(=O)NCCCCCCCCNC(=O)[C@H]2CCCC[C@@H]2C(=O)NCCCCCCCCNC(=O)c2nn(-c3ccc(Cl)cc3Cl)c(-c3ccc(Cl)cc3)c2C)nn(-c2ccc(Cl)cc2Cl)c1-c1ccc(Cl)cc1 (relative stereo)	Cannabinoid receptor 1 (Homo sapiens)	%	14.3
Cc1c(C(=O)NCCCCNCc2cccc(CNCCCCNC(=O)c3nn(-c4ccc(Cl)cc4Cl)c(-c4ccc(Cl)cc4)c3C)c2)nn(-c2ccc(Cl)cc2Cl)c1-c1ccc(Cl)cc1	Cannabinoid receptor 1 (Homo sapiens)	%	76.8
Cc1c(C(=O)NCCCCCCCN(CCCCCCCNC(=O)c2nn(-c3ccc(Cl)cc3Cl)c(-c3ccc(Cl)cc3)c2C)Cc2ccccc2)nn(-c2ccc(Cl)cc2Cl)c1-c1ccc(Cl)cc1	Cannabinoid receptor 1 (Homo sapiens)	%	67.5
Cc1c(C(=O)NCCCCNCc2cccc(C(=O)NCCCCNC(=O)c3nn(-c4ccc(Cl)cc4Cl)c(-c4ccc(Cl)cc4)c3C)c2)nn(-c2ccc(Cl)cc2Cl)c1-c1ccc(Cl)cc1	Cannabinoid receptor 1 (Homo sapiens)	%	78.1

Here's the next entry for you.
Exam item: Report Emax for Cc1c(C(=O)NCCCCNC(=O)c2cccc(C(=O)NCCCCNC(=O)c3nn(-c4ccc(Cl)cc4Cl)c(-c4ccc(Cl)cc4)c3C)c2)nn(-c2ccc(Cl)cc2Cl)c1-c1ccc(Cl)cc1 please.
Marked response: 19.5

###

- experimental_target: Cannabinoid receptor 1 (Homo sapiens)
- conditions_used: Sf9, at 30 µM
measured_property: Emax (%)
Report the value in % with no unit label.

Guide cases for Emax, answers given:
compound	value_units	Emax
Cc1c(C(=O)NCCCCCCCCNC(=O)[C@@H]2CCC[C@H](C(=O)NCCCCCCCCNC(=O)c3nn(-c4ccc(Cl)cc4Cl)c(-c4ccc(Cl)cc4)c3C)C2)nn(-c2ccc(Cl)cc2Cl)c1-c1ccc(Cl)cc1	%	33.6
Cc1c(C(=O)NCCCCCCCCNC(=O)[C@H]2CC[C@H](C(=O)NCCCCCCCCNC(=O)c3nn(-c4ccc(Cl)cc4Cl)c(-c4ccc(Cl)cc4)c3C)CC2)nn(-c2ccc(Cl)cc2Cl)c1-c1ccc(Cl)cc1	%	38.8
Cc1c(C(=O)NCCCCCCCCNC(=O)[C@@H]2CCC[C@@H](C(=O)NCCCCCCCCNC(=O)c3nn(-c4ccc(Cl)cc4Cl)c(-c4ccc(Cl)cc4)c3C)C2)nn(-c2ccc(Cl)cc2Cl)c1-c1ccc(Cl)cc1	%	45.5
Cc1c(C(=O)NCCCCNC(=O)c2ccccc2)nn(-c2ccc(Cl)cc2Cl)c1-c1ccc(Cl)cc1	%	94
Cc1c(C(=O)NCCCCNC(=O)[C@H]2CC[C@@H](C(=O)NCCCCNC(=O)c3nn(-c4ccc(Cl)cc4Cl)c(-c4ccc(Cl)cc4)c3C)CC2)nn(-c2ccc(Cl)cc2Cl)c1-c1ccc(Cl)cc1	%	61.9

Here's the next entry for you.
Exam item: Report Emax for Cc1c(C(=O)NCCCCNC(=O)[C@@H]2CCC[C@@H](C(=O)NCCCCNC(=O)c3nn(-c4ccc(Cl)cc4Cl)c(-c4ccc(Cl)cc4)c3C)C2)nn(-c2ccc(Cl)cc2Cl)c1-c1ccc(Cl)cc1 (relative stereo) please.
Marked response: 63
